- experimental system: recombinant human AMCase (Homo sapiens (Human), UniProt Q9BZP6)
- Sequence (Q9BZP6 22-476): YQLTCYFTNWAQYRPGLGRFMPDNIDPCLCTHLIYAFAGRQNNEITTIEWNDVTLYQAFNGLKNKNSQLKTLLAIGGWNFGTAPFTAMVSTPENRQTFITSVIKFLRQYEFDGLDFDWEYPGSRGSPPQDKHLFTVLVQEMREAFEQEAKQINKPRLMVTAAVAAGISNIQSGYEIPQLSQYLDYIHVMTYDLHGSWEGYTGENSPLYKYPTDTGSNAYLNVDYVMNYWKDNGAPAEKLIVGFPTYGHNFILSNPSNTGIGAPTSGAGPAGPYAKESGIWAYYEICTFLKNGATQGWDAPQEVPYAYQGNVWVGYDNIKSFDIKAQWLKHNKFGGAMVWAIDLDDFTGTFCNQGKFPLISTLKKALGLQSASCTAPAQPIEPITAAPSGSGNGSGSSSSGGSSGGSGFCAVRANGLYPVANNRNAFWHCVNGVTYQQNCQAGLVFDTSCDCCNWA
- experiment notes: Human AMCase activity assay
- experimental setup: citrate buffer pH 5.2, 37° C., 60 minutes, read-out: hAMCase, IC50
Structures can show the parent of a compound that is named as a salt.
outcome measure: IC50

The cases that follow already have their IC50 on record.
compound	IC50
CS(=O)(=O)C[C@H]1CN(C2CCN(c3nnc(N)[nH]3)CC2)[C@@H](Cc2ccc(Cl)cc2)CO1 [Example 33, dihydrochloride]	< 100 nM
N#Cc1cnn(C[C@H]2CN(C3CCN(c4nnc(N)[nH]4)CC3)[C@@H](Cc3ccc(Cl)cc3)CO2)c1 [Example 8, 2,2,2-trifluoroacetate]	< 100 nM

Q: Which IC50 value belongs to Nc1nnc(N2CCC(N3C[C@H](C(F)F)OC[C@@H]3Cc3ccc(Cl)cc3)CC2)[nH]1 [Example 2, 2,2,2-trifluoroacetate] ?
Ans: < 100 nM

====

- experimental system: recombinant human CHIT1 (Homo sapiens (Human))
- experiment notes: Human CHIT1 activity assay
- Assay type: biochemical
- experimental setup: recombinant human CHIT1, citrate buffer pH 5.2, 37° C., 60 minutes; read-out: hCHIT1, IC50
- Method: The assay was run in the 96-well plate format, each reaction in the total volume of 100 μL. 4-methylumbelliferyl β-D-N,N′,N″-triacetylchitotriose was used as a substrate for the enzyme. Upon hydrolysis by CHIT1, the substrate releases 4-methylumbelliferyl (4MU) that, when ionized in basic pH, emits fluorescence at 460 nm. […] The IC50 values were calculated using GraphPad Prism.
Where a name gives a salt, the structure may show the parent alone.
outcome measure: IC50

compound	IC50
CO[C@@H]1CC[C@H](Cc2ccc(Cl)cc2)N(C2CCN(c3nnc(N)[nH]3)CC2)C1 [Example 71, 2,2,2-trifluoroacetate]	100 to 1000 nM

Can you give me IC50 for all of these, one by one?
1. CC1CN(C(=O)[C@H]2CN(C3CCN(c4nnc(N)[nH]4)CC3)[C@@H](Cc3ccc(Cl)cc3)CO2)C1 [Example 61, 2,2,2-trifluoroacetate]
2. CSC[C@H]1CN(C2CCN(c3nnc(N)[nH]3)CC2)[C@@H](Cc2ccc(Cl)cc2)CO1 [Example 41, dihydrochloride]
3. CN(C)C(=O)OC[C@H]1CN(C2CCN(c3nnc(N)[nH]3)CC2)[C@@H](Cc2ccc(Cl)cc2)CO1 [Example 48, 2,2,2-trifluoroacetate]
4. Nc1nnc(N2CCC(N3C[C@H](Cn4ccnn4)OC[C@@H]3Cc3ccc(Cl)cc3)CC2)[nH]1 [Example 21, 2,2,2-trifluoroacetate]
5. Nc1nnc(N2CCC(N3C[C@H](CN4CCCC4=O)OC[C@@H]3Cc3ccc(Cl)cc3)CC2)[nH]1 [Example 7, 2,2,2-trifluoroacetate]
6. Nc1nnc(N2CCC(N3C[C@H](N4CCOCC4)C[C@@H]3Cc3ccc(Cl)cc3)CC2)[nH]1 [Example 55, 2,2,2-trifluoroacetate]

Ans:
1: < 100 nM; 2: < 100 nM; 3: < 100 nM; 4: < 100 nM; 5: < 100 nM; 6: < 100 nM

# per-item lookup of IC50; items listed below
1. Nc1nnc(N2CCC(N3C[C@H](CN4CCOCC4)OC[C@@H]3Cc3ccc(Cl)cc3)CC2)[nH]1 [Example 15, 2,2,2-trifluoroacetate]
2. Nc1nnc(N2CCC(N3C[C@H](CN4CCCCC4=O)OC[C@@H]3Cc3ccc(Cl)cc3)CC2)[nH]1 [Example 35, 2,2,2-trifluoroacetate]
3. Nc1nnc(N2CCC(N3C[C@H](Cc4nn[nH]n4)OC[C@@H]3Cc3ccc(Cl)cc3)CC2)[nH]1 [Example 4, 2,2,2-trifluoroacetate]
4. Nc1nnc(N2CCC(N3Cc4cncn4C[C@@H]3Cc3ccc(C(F)(F)F)cc3)CC2)[nH]1 [Example 77, 2,2,2-trifluoroacetate]
5. Nc1nnc(N2CCC(N3CC(F)(F)C[C@@H]3Cc3ccc(Cl)cc3)CC2)[nH]1 [Example 56, dihydrochloride]
6. Nc1nnc(N2CCC(N3C[C@H](CN4CC[C@H](O)C4)OC[C@@H]3Cc3ccc(Cl)cc3)CC2)[nH]1 [Example 30, 2,2,2-trifluoroacetate]
7. C[C@H]([C@H]1CN(C2CCN(c3nnc(N)[nH]3)CC2)[C@@H](Cc2ccc(Cl)cc2)CO1)n1cccn1 [Example 19, 2,2,2-trifluoroacetate]

Ans:
< 100 nM
< 100 nM
< 100 nM
1000 to 10000 nM
< 100 nM
100 to 1000 nM
< 100 nM

I would be grateful if you could provide IC50 for each of the following entries.
1. Cc1cc([C@H]2CN(C3CCN(c4nnc(N)[nH]4)CC3)[C@@H](Cc3ccc(Cl)cc3)CO2)[nH]n1 [Example 34, 2,2,2-trifluoroacetate]
2. Nc1nnc(N2CCC(N3C[C@H](CN4CCCC4)OC[C@@H]3Cc3ccc(Cl)cc3)CC2)[nH]1 [Example 28, 2,2,2-trifluoroacetate]

Ans:
["< 100 nM", "< 100 nM"]

====

- experimental system: recombinant human CHIT1 (Homo sapiens (Human), UniProt Q13231)
- Sequence (Q13231 22-466): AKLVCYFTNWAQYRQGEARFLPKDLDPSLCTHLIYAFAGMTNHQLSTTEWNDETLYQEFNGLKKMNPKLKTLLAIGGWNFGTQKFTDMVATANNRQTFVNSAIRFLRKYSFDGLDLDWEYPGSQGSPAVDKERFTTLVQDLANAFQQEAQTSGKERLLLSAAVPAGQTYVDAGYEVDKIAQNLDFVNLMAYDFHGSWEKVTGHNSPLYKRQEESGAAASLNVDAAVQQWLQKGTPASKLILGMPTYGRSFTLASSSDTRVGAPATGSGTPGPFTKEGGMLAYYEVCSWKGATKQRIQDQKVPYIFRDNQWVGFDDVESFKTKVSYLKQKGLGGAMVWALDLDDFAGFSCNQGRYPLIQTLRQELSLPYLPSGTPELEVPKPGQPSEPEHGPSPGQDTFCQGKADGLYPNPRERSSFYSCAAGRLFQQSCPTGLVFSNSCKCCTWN
- experiment notes: Human CHIT1 activity assay
- experimental setup: recombinant human CHIT1, citrate buffer pH 5.2, 37° C., 60 minutes; read-out: hCHIT1, IC50
Where a name gives a salt, the structure may show the parent alone.
outcome measure: IC50

compound	experimental system	meas value
CS(=O)(=O)C[C@H]1CN(C2CCN(c3nnc(N)[nH]3)CC2)[C@@H](Cc2ccc(Cl)cc2)CO1 [Example 33, dihydrochloride]	recombinant human CHIT1 (Homo sapiens (Human), UniProt Q13231)	< 0.1 µM

Your task in this section: give IC50 for each listed record.
1. Nc1nnc(N2CCC(N3C[C@H](COC(F)F)OC[C@@H]3Cc3ccc(Cl)cc3)CC2)[nH]1 [Example 40, 2,2,2-trifluoroacetate]
2. Nc1nnc(N2CCC(N3C[C@H](COCC(F)(F)F)OC[C@@H]3Cc3ccc(Cl)cc3)CC2)[nH]1 [Example 39, 2,2,2-trifluoroacetate]
3. CC(C)CNC(=O)[C@H]1CN(C2CCN(c3nnc(N)[nH]3)CC2)[C@@H](Cc2ccc(Cl)cc2)CO1 [Example 69, 2,2,2-trifluoroacetate]

Ans:
1: < 0.1 µM; 2: < 0.1 µM; 3: < 0.1 µM

# return IC50 for each item in the list
1. Nc1nnc(N2CCC(N3C[C@H](Cn4cncn4)OC[C@@H]3Cc3ccc(Cl)cc3)CC2)[nH]1 [Example 27, 2,2,2-trifluoroacetate]
2. CC(F)(F)[C@H]1CN(C2CCN(c3nnc(N)[nH]3)CC2)[C@@H](Cc2ccc(Cl)cc2)CO1 [Example 42, dihydrochloride]

Ans:
1. < 0.1 µM
2. < 0.1 µM
